Measured values drawn from PubChem BioAssay (EPA / NIEHS) for this set.

- method: ATG_ERE_CIS: Attagene CIS-FACTORIAL HepG2 Assay for Estrogen Response Element (ERE) (AID 2282940)
- applied-conditions: HepG2 ERE cis-reporter, Attagene RNA transcript; actives raise or lower the signal
Active and inactive are the calls of the source. How the source made its calls: active means hit-call score of the fitted dose curve at least 0.9, where 1 is the maximum; inactive means score below 0.9.
Allowed answers: T for active, F for inactive

Field: example entries. Status: answers known.
• CNC(=O)Oc1cccc2ccccc12 = T
• COCC(C)N(C(=O)CCl)c1c(C)csc1C (configuration not stated) = F
• CC(C)Nc1nc(Cl)nc(NC(C)C)n1 = F
• CCOP(=O)(OCC)Oc1nc(Cl)c(Cl)cc1Cl = T
• CCSC(=O)N1CCCCCC1 = F

Q) Per the records of this test, what outcome belongs to CCN(CC)C(=O)C(C)Oc1cccc2ccccc12 (configuration not stated) ?
A) T

Q) Per the records of this test, what outcome belongs to N#Cc1c[nH]cc1-c1cccc2c1OC(F)(F)O2 ?
A) T
